Recorded values, source patent US8394828B2.

tested on: carrageenan paw-induced thermal hyperalgesia; test: Carrageenan Paw-induced Thermal Hyperalgesia; assay type: in vivo, mice or rats; settings: 10 mg/kg po; read-out: % Recovery
measuredEndpoint: inhibition in vivo at 10 mg/kg

Worked examples, 3 molecules total:
> print(dat)
                                   molecule  measured
1  CC(C)(C)c1ccc(C=CC(=O)Nc2cnc3ccccc3c2Cl)cc1 [Example 82]       70%
2  O=C(Nc1cnc2ccccc2c1)c1ccc(N2CCC(Cc3ccccc3)CC2)cc1 [Example 180]       64%
3  CCCCCN1CCc2cc(C(=O)Nc3cnc4ccccc4c3)ccc21 [Example 227]       52%

Dear colleague, I am looking for the recorded inhibition in vivo at 10 mg/kg of the following molecule: CN(CCc1ccccc1)c1ccc(C(=O)Nc2cnc3ccccc3c2)cc1 [Example 89]
42%

Form field: reported inhibition in vivo at 10 mg/kg of O=C(C=Cc1ccc(Cl)c(C(F)(F)F)c1)Nc1cnc2ccccc2c1 [Example 56]
58%

* * *

target: human VR1 (Homo sapiens); construct: expressed in transfected cells; host or cells: HEK293; assay: Human VR1 [3H] RTX binding assay; conditions: 3H-RTX binding; hVR1; read-out: 3H-RTX binding assay Ki hVR1
Criterion: Ki strictly less than 30 nM. Met: fulfilled. Not met: not fulfilled.

Find out if reported Ki for O=C(Nc1cnc2ccccc2c1)c1ccc(N2CCN(C(=O)Cc3ccccc3)CC2)cc1 is less than 30 nM
not fulfilled

Ki strictly < 30 nM for this compound? CCCN1CCc2cc(CCC(=O)Nc3cnc4ccccc4c3)ccc21
not fulfilled

* * *

biological target: human VR1 (Homo sapiens); construct: expressed in transfected cells; host or cells: HEK293; assay: Human VR1 [3H] RTX binding assay; conditions: 3H-RTX binding; hVR1; read-out: 3H-RTX binding assay Ki hVR1
measuredEndpoint: pKi
A value of pKi is the negative decimal logarithm of a concentration given in moles per litre.

> print(dat)
                                   molecule  measured
1  CCC(C)(C)c1ccc(CCCC(=O)Nc2cnc3ccccc3c2)cc1      6.28

Please give the measured pKi for this molecule: O=C(Nc1cnc2ccccc2c1)c1ccc(N2CCCCCCC2)nc1
7.52

Entry O=C(CCc1ccc2c(c1)CCCC2)Nc1cnc2ccccc2c1 has what pKi?
6.70

Find the recorded pKi belonging to CCC(C)(C)c1ccc(C=CCC(=O)Nc2cnc3ccccc3c2)cc1 and report it.
6.86

Item O=C(Nc1cnc2ccccc2c1)c1ccc(NCC2CCCCC2)cc1Cl has what recorded pKi?
5.95

Returns the measured pKi for the input molecule. Input: O=C(Nc1cnc2ccccc2c1)c1ccc(N(CCc2ccccc2)CC2CCCCC2)cc1
6.79

* * *

target: human VR1 (Homo sapiens); construct: expressed in transfected cells; host or cells: HEK293; test: Human VR1 [3H] RTX binding assay; conditions: 3H-RTX binding; compound at 1 μM
measuredEndpoint: inhibition at 1 µM (%)
Respond with the bare value in %.

Some entries whose results are on file:
> print(dat)
                                   compound                       tgt    measuredendpoint  measureunit  measured
1  CN(c1ccc(C=CC(=O)Nc2cnc3ccccc3c2)cc1)C1CCCCC1  human VR1 (Homo sapiens)  inhibition at 1 µM            %        91
2  CN(CCc1ccccc1)c1ccc(C(=O)Nc2cnc3ccccc3c2)cn1  human VR1 (Homo sapiens)  inhibition at 1 µM            %        97
3  O=C(Nc1cnc2ccccc2c1)c1ccc(N2CC[C@@H]3CCCC[C@H]3C2)nc1 (relative stereo)  human VR1 (Homo sapiens)  inhibition at 1 µM            %       104
4  CCCC1CCN(c2ccc(C(=O)Nc3cnc4ccccc4c3)cn2)CC1  human VR1 (Homo sapiens)  inhibition at 1 µM            %        93

API: the following record is the query input.
Which inhibition at 1 µM value is on record for CC(=O)N1CCc2cc(C(=O)Nc3cnc4ccccc4c3)ccc21 ?
1

* * *

biological target: human VR1 (Homo sapiens); construct: expressed in transfected cells; host or cells: HEK293; assay: Human VR1 [3H] RTX binding assay; conditions: 3H-RTX binding; compound at 1 μM
Below: a set of entries, each annotated with reported inhibition at 1 µM.
Report the figure in % without appending any unit label.

> print(dat)
                                   compound    measuredendpoint  measureunit  measured
1  CN(CCc1ccccc1)c1ccc(C(=O)Nc2cnc3ccccc3c2)cc1  inhibition at 1 µM            %       102
2  CCCCC(C)(C)c1ccc(CCCC(=O)Nc2cnc3ccccc3c2)cc1  inhibition at 1 µM            %        82
3  O=C(Nc1cnc2ccccc2c1)c1ccc(N2CC[C@@H]3CCCC[C@@H]3C2)nc1 (relative stereo)  inhibition at 1 µM            %        99
4  CN(Cc1ccccc1)c1ccc(C(=O)Nc2cnc3ccccc3c2)cc1  inhibition at 1 µM            %        98
5  CCCCC1CCC(C(=O)Nc2cnc3ccccc3c2)CC1 (stereo not shown)  inhibition at 1 µM            %        81
6  CN(Cc1ccccc1)c1ccc(C(=O)Nc2cnc3ccccc3c2)cn1  inhibition at 1 µM            %        43
7   CCCCCN(C)c1ccc(C(=O)Nc2cnc3ccccc3c2)cn1  inhibition at 1 µM            %        91
8   O=C(Nc1cnc2ccccc2c1)c1ccc(N2CCCCCC2)nc1  inhibition at 1 µM            %        44

Endpoint output: inhibition at 1 µM of CCCCCCCN(C)c1ccccc1C(=O)Nc1cnc2ccccc2c1 . Value?
0

Returns the measured inhibition at 1 µM for the input compound. Input: CN(CC1CCCCC1)c1ccc(C(=O)Nc2cnc3ccccc3c2)cc1
104

* * *

# key: entry, value: inhibition at 1 µM
molecular target: human VR1 (Homo sapiens, UniProt Q8NER1); construct: expressed in transfected cells; host or cells: HEK293; experiment: Human VR1 [3H] RTX binding assay; details: 3H-RTX binding; compound at 1 μM
Sequence (Q8NER1 whole entry): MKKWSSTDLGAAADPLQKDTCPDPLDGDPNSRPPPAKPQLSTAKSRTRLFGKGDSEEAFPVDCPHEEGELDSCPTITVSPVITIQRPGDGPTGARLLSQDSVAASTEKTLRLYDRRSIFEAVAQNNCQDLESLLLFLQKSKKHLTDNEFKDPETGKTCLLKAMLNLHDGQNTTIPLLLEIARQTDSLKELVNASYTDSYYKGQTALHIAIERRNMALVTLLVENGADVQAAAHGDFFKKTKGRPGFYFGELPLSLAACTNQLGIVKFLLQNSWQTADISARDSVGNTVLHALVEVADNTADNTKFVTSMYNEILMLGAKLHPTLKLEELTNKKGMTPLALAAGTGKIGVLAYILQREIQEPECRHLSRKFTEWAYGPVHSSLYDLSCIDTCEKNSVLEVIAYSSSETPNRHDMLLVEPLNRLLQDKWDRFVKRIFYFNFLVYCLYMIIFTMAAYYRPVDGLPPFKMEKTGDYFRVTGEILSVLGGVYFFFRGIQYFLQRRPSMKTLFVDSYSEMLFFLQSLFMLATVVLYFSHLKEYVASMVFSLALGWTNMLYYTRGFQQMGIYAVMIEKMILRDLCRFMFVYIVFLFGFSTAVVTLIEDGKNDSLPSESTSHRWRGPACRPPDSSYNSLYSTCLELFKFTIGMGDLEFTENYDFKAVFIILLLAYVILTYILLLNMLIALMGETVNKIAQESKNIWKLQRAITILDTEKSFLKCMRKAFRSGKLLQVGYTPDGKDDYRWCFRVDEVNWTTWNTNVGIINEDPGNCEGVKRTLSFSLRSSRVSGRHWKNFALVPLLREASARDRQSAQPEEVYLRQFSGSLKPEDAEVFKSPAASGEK

// worked examples, inhibition at 1 µM included
> print(dat)
                                   molecule    measuredendpoint  measured
1    CCCN1CCc2cc(C(=O)Nc3cnc4ccccc4c3)ccc21  inhibition at 1 µM       93%
2  O=C(Nc1cnc2ccccc2c1)c1ccc(N2CCC(C(=O)c3ccccc3)CC2)cc1  inhibition at 1 µM       61%

# input compound: CCC=CCCCN(C)c1ccc(C(=O)Nc2cnc3ccccc3c2)cc1 ; wanted: its inhibition at 1 µM
104%

Would you kindly share the measured inhibition at 1 µM for O=C(Nc1cnc2ccccc2c1)c1ccc(N2CC3CCCC(C3)C2)cc1 ?
99%

I would be grateful if you could share the reported inhibition at 1 µM for O=C(Nc1cnc2ccccc2c1)c1ccc(N2CC3CCCC(C3)C2)nc1 .
80%

So what's the measured inhibition at 1 µM for this one? CCCCN(C)c1ccc(C(=O)Nc2cnc3ccccc3c2)cc1
97%

What does the data say about its inhibition at 1 µM? Entry: CC(C)=CCC[C@@H](C)CCN(C)c1ccc(C(=O)Nc2cnc3ccccc3c2)cc1
105%

* * *

target: human VR1 (Homo sapiens, UniProt Q8NER1); construct: expressed in transfected cells; host or cells: HEK293; experiment: Human VR1 functional assay (intracellular Ca++, FLIPR, capsaicin challenge); format: cell-based; details: hVR1, capsaicin challenge, read-out: FLIPR functional assay IC50 hVR1
Items are presented alongside their recorded IC50.
Unit nM implied. Number only.

> print(dat)
                                   molecule  measuredendpoint  measured
1  CN(CCc1ccccc1)c1ccc(C(=O)Nc2cnc3ccccc3c2)cn1              IC50      1200
2  Cc1cc(C(=O)Nc2cnc3ccccc3c2)ccc1N(C)CC1CCCCC1              IC50     10000
3  CCCCN(CCCC)c1ccc(C(=O)Nc2cnc3ccccc3c2)cc1 [4-Dibutylamino-N-quinolin-3-yl-benzamide]              IC50      4600

Query: IC50; subject: O=C(Nc1cnc2ccccc2c1)c1ccc(N2CC3CCCC(C3)C2)cc1
170

What measured IC50 goes with CCCn1ccc2cc(CCC(=O)Nc3cnc4ccccc4c3)ccc21 ?
480

Given the molecule O=C(Nc1cnc2ccccc2c1)c1ccc2c(c1)CCN2C1CCCCC1 , what is its reported IC50?
44

Form field: reported IC50 of CCCCC(C)(C)c1cc(OC)c(CCC(=O)Nc2cnc3ccccc3c2)c(OC)c1
1000

I am curious: what IC50 value has been reported for CCCCCNc1ccc(C(=O)Nc2cnc3ccccc3c2)cc1C ?
780

Query (molecule): CCCCCN(C)c1cccc(C(=O)Nc2cnc3ccccc3c2)c1 ; field requested: IC50
500

Give the measured IC50 of O=C(Nc1cnc2ccccc2c1)c1ccc(N2CCCCCC2)nc1 .
215
